TARGET_OR_TEST_SYSTEM: covalently-crosslinked hexameric CA A14C/E45C/W184A/M185A (CA121) (Human immunodeficiency virus type 1 group M subtype B, UniProt P12493, A146C/E177C/M317A/W316A)
PROCEDURE_SUMMARY: Thermal shift assay (TSA), CA hexamer stability
Assay type: binding, HIV-1
MEASUREMENT_CONTEXT: compound 20 μM, ΔTm=Tm−T0 vs DMSO
REPORTED_METRIC: TSA ΔTm (° C.) (°C)
Give the value in °C but do not write °C after it.

COMPOUND: Cc1ccc(N(C)C(=O)[C@H](Cc2ccccc2)NC(=O)CN2C(=O)NC3(CCCCC3)C2=O)cc1 [Example 24]
TSA ΔTm (° C.), °C: 2.7
//
COMPOUND: CN(C(=O)[C@H](Cc1ccccc1)NC(=O)Cc1cccc2ccccc12)c1cccc(Cl)c1 [Example 19]
TSA ΔTm (° C.), °C: 4.4
//
COMPOUND: O=C(Cc1c[nH]c2ccc(O)cc12)N[C@@H](Cc1ccccc1)c1ncccc1-c1ccc(Cl)cc1 [Example 56]
TSA ΔTm (° C.), °C: 8.7
//
COMPOUND: CCN(C(=O)[C@H](Cc1ccccc1)NC(=O)CN1C(=O)NC2(CCCCC2)C1=O)c1ccccc1 [Example 30]
TSA ΔTm (° C.), °C: 2.0
//
COMPOUND: O=C(Cc1c[nH]c2ccccc12)N[C@@H](Cc1ccccc1)c1ncccc1-c1ccc(Cl)cc1 [Example 54]
TSA ΔTm (° C.), °C: 7.7

Then there is this compound:
Tell me TSA ΔTm (° C.) reported for CN(C(=O)[C@H](Cc1ccccc1)NC(=O)Cc1cccc2ccccc12)c1cccc(F)c1 [Example 20]
5.4

====

PROCEDURE_SUMMARY: Microsomal stability assay, mouse liver microsomes
Type: in vitro ADME
MEASUREMENT_CONTEXT: pH 7.4, 1 μM compound, NADPH, without Cobicistat, read-out: MLM half-life (t1/2)
Procedure: The in vitro microsomal stability assay was conducted in duplicate in mouse and human liver microsomal systems, which were supplemented with nicotinamide adenine dinucleotide phosphate (NADPH) as a cofactor. […] The reaction was initiated by addition of 1 mM NADPH, followed by incubation at 37° C. […] The supernatants were collected and analyzed by LC-MS/MS to determine the in vitro metabolic half-life (t1/2).
REPORTED_METRIC: half-life at 1 μM

COMPOUND: CN(C(=O)[C@H](Cc1ccccc1)NC(=O)CN1C(=O)NC2(CCCCC2)C1=O)c1ccc(F)cc1 [drawing 188]
REPORTED_METRIC: half-life at 1 μM
DATA_VALUE: 30 s

COMPOUND: CN(C(=O)[C@H](Cc1ccccc1)NC(=O)CN1C(=O)NC2(CCCCC2)C1=O)c1ccc(Cl)cc1 [drawing 189]
REPORTED_METRIC: half-life at 1 μM
DATA_VALUE: 54 s

COMPOUND: Cc1ccc(C)c2c1NC(=O)C2CC(=O)N[C@@H](Cc1ccccc1)C(=O)N(C)c1cccc(Cl)c1 (stereo partly shown) [drawing 180]
REPORTED_METRIC: half-life at 1 μM
DATA_VALUE: 84 s

Then there is this compound:
Tell me half-life at 1 μM reported for CN(C(=O)[C@H](Cc1ccccc1)NC(=O)Cc1ccc2ccccc2c1)c1ccccc1 [drawing 181]
30 s

====

Consider the following compounds and their measured half-life at 1 μM readings.
PROCEDURE_SUMMARY: Microsomal stability assay, human liver microsomes
Format: in vitro ADME
MEASUREMENT_CONTEXT: pH 7.4; human liver microsomes, 1 μM compound, NADPH, without Cobicistat; read-out: HLM half-life (t1/2)
Give the value in min but do not write min after it.

COMPOUND: CN(C(=O)[C@H](Cc1ccccc1)NC(=O)Cc1cccc2ccccc12)c1ccccc1 [drawing 183]
UNIT_OF_MEASURE: min
half-life at 1 μM: 0.6

Tell me half-life at 1 μM reported for CN(C(=O)[C@H](Cc1ccccc1)NC(=O)CN1C(=O)NC2(CCCCC2)C1=O)c1ccc(Cl)cc1 [drawing 189]
3.1

Tell me half-life at 1 μM reported for CN(C(=O)[C@H](Cc1ccccc1)NC(=O)Cc1cccc2ccccc12)c1ccc(Cl)cc1 [drawing 184]
1.1

Tell me half-life at 1 μM reported for Cc1cccc2c1NC(=O)C2CC(=O)N[C@@H](Cc1ccccc1)C(=O)N(C)c1cccc(F)c1 (stereo partly drawn) [drawing 178]
2.5

====

PROCEDURE_SUMMARY: Microsomal stability assay, mouse liver microsomes
Format: in vitro ADME
MEASUREMENT_CONTEXT: pH 7.4, 1 μM compound, NADPH, without Cobicistat, read-out: MLM half-life (t1/2)
Consider the following compounds and their measured half-life at 1 μM readings.
Give the value in s but do not write s after it.

COMPOUND: Cc1ccc(N(C)C(=O)[C@H](Cc2ccccc2)NC(=O)CN2C(=O)NC3(CCCCC3)C2=O)cc1 [drawing 187]
half-life at 1 μM [s]: 72
--
COMPOUND: CN(C(=O)[C@H](Cc1ccccc1)NC(=O)Cc1cccc2ccccc12)c1ccc(Cl)cc1 [drawing 184]
half-life at 1 μM [s]: 36
--
COMPOUND: Cc1cccc2c1NC(=O)C2CC(=O)N[C@@H](Cc1ccccc1)C(=O)N(C)c1cccc(F)c1 (some centres unmarked) [drawing 178]
half-life at 1 μM [s]: 66
--
COMPOUND: Cc1ccc(C)c2c1NC(=O)C2CC(=O)N[C@@H](Cc1ccccc1)C(=O)N(C)c1ccccc1 (some centres unmarked) [drawing 179]
half-life at 1 μM [s]: 36
--
COMPOUND: Cc1cccc2c1NC(=O)C2CC(=O)N[C@@H](Cc1ccccc1)C(=O)N(C)c1ccccc1 (some centres unmarked) [drawing 177]
half-life at 1 μM [s]: 60
--
COMPOUND: CN(C(=O)[C@H](Cc1ccccc1)NC(=O)Cc1cccc2ccccc12)c1ccccc1 [drawing 183]
half-life at 1 μM [s]: 30

Tell me half-life at 1 μM reported for COc1ccc(N(C)C(=O)[C@H](Cc2ccccc2)NC(=O)CN2C(=O)NC3(CCCCC3)C2=O)cc1 [drawing 186]
42

Tell me half-life at 1 μM reported for CN(C(=O)[C@H](Cc1ccccc1)NC(=O)Cc1ccc2ccccc2c1)c1ccc(Cl)cc1 [drawing 182]
84

====

PROCEDURE_SUMMARY: Cytotoxicity in TZM-GFP cells (XTT)
Type: cell-based
MEASUREMENT_CONTEXT: human, 72 hours exposure, XTT
Consider the following molecules and their measured CC50 at 72 h readings.

# example entries with known answers
MOLECULE: CN(C(=O)[C@H](Cc1ccccc1)NC(=O)Cc1ccc2ccccc2c1)c1ccc(Cl)cc1 [Example 12]
DATA_VALUE: < 50 µM
--
MOLECULE: CN(C(=O)[C@H](Cc1ccccc1)NC(=O)CN1C(=O)NC2(CCCCC2)C1=O)c1ccc(F)cc1 [Example 25]
DATA_VALUE: > 50 µM
--
MOLECULE: CCN(C(=O)[C@H](Cc1ccccc1)NC(=O)Cc1cccc2ccccc12)c1ccccc1 [Example 21]
DATA_VALUE: < 50 µM
--
MOLECULE: Cc1cn(CC(=O)N[C@@H](Cc2ccccc2)C(=O)N(C)c2cccc(Cl)c2)c(=O)[nH]c1=O [Example 45]
DATA_VALUE: > 50 µM
--
MOLECULE: Cc1ccc(C)c2c1NC(=O)C2CC(=O)N[C@@H](Cc1ccccc1)C(=O)N(C)c1cccc(Cl)c1 (stereo partly drawn) [Example 9]
DATA_VALUE: 43 µM

Tell me CC50 at 72 h reported for Cc1cn(CC(=O)N[C@@H](Cc2ccccc2)C(=O)N(C)c2ccc(F)cc2)c(=O)[nH]c1=O [Example 46]
> 50 µM

Tell me CC50 at 72 h reported for Cc1cn(CC(=O)N[C@@H](Cc2ccccc2)C(=O)N(C)c2cccc(Br)c2)c(=O)[nH]c1=O [Example 48]
> 50 µM

Tell me CC50 at 72 h reported for CCN(C(=O)[C@H](Cc1ccccc1)NC(=O)Cc1ccc2ccccc2c1)c1ccccc1 [Example 15]
< 50 µM

====

Consider the following compounds and their measured CC50 at 72 h readings.
PROCEDURE_SUMMARY: Cytotoxicity in TZM-GFP cells (XTT)
Assay type: cell-based
MEASUREMENT_CONTEXT: human, 72 hours exposure, XTT
Description: The cytotoxicity of each compound was also determined in TZM-GFP cells. Cells were plated at a density of 1×10^4 cells per well in a 96-well plate and were continuously exposed to increasing concentrations of a compound for 72 hours. […] For the EC50 and CC50 dose responses, values were plotted in GraphPad Prism 5 and analyzed with the log (inhibitor) vs. normalized response-variable slope equation. Final values were calculated in each independent assay and the average values were determined. […]

# example entries with known answers
COMPOUND: Cc1ccc(N(C)C(=O)[C@H](Cc2ccccc2)NC(=O)Cc2cccc3ccccc23)cc1 [Example 17]
CC50 at 72 h: < 50 µM

COMPOUND: CN(C(=O)[C@H](Cc1ccccc1)NC(=O)Cn1c(=O)[nH]c2ccccc2c1=O)c1ccc(F)cc1 [Example 32]
CC50 at 72 h: > 100 µM

COMPOUND: CN(C(=O)[C@H](Cc1ccccc1)NC(=O)CN1C(=O)NC2(CCCCC2)C1=O)c1cccc(F)c1 [Example 26]
CC50 at 72 h: > 50 µM

Then there is this compound:
Tell me CC50 at 72 h reported for Cc1cn(CC(=O)N[C@@H](Cc2ccccc2)C(=O)N(C)c2ccc(Cl)cc2)c(=O)[nH]c1=O [Example 44]
> 50 µM
